- Tested on: RBM10 RRM1-ZnF (GST-tagged construct);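 further: 20 pmol protein with 1.5 nmol RNA pool for 30 min at 4°C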
- Procedure summary: RNAcompete 7-mer binding Z-score; higher = stronger binding preference
Whole data set: some 16,000 sequences, median “Z-score” near -0.37, cut for the highest 2% near 3.2. This is one part of a sample in which the highest values are shown more often than they occur.
The threshold is inclusive: RNAcompete 7-mer binding Z-score of exactly 2 counts as condition met; values below receive condition not met.

- Construct sequence: "CUCACUU"
  Qualitative label: "condition not met"
- Construct sequence: "UGGAACG"
  Qualitative label: "condition met"
- Construct sequence: "AGGAAUG"
  Qualitative label: "condition met"
- Construct sequence: "UUGGCGA"
  Qualitative label: "condition not met"
- Construct sequence: "AACCAUC"
  Qualitative label: "condition not met"

Hi team, for AUUUAUC , is the recorded RNAcompete 7-mer binding Z-score at or above 2?
condition not met

Record CAGAGGU ; criterion: RNAcompete 7-mer binding Z-score no lower than 2. Met?
condition not met

Could you please find out whether UUCAAAU has RNAcompete 7-mer binding Z-score that meets 2 or exceeds it?
condition not met

// inclusive: RNAcompete 7-mer binding Z-score at least 2? input: GGGAAUG
condition met
